meta.source: patent US20090118314A1

biological target: PAI-1 (Homo sapiens, UniProt P05121); assay: PAI-1 inhibitory activity using synthetic substrate S-2288; assay type: biochemical
Sequence (P05121 24-402, species assumed): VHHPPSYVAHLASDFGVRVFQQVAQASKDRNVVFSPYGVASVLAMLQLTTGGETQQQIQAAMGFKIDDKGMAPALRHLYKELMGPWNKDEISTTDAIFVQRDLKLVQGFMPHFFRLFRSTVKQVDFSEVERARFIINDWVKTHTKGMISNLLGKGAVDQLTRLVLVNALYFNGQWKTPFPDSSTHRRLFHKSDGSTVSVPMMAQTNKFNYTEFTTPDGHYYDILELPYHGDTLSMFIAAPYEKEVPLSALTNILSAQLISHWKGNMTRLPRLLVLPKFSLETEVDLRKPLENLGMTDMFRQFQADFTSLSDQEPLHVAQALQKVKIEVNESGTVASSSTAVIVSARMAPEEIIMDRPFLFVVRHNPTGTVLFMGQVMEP
pIC50: −log10 of the molar value.
Measure: pIC50

Take a look at these entries with their results.
{"Compound": "O=C(O)C(CCCCCOc1ccc2cc(-c3nc4ccc(OCc5ccccc5)cc4o3)ccc2c1)C(=O)O [compound 24]", "Numeric result": 6.27}
{"Compound": "CC(C)(C)c1ccc2oc(-c3ccc4cc(OCCCCCC(C(=O)O)C(=O)O)ccc4c3)nc2c1 [Compound No. 20]", "Numeric result": 6.36}
{"Compound": "O=C(O)C(CCCOc1ccc2cc(-c3nc4cc(-c5ccccc5)ccc4o3)ccc2c1)C(=O)O [compound 13]", "Numeric result": 6.27}

(A) Cc1ccc(-c2nc(-c3ccc4cc(OCCCCCC(C(=O)O)C(=O)O)ccc4c3)oc2-c2ccc(C)cc2)cc1 [compound 7]
(B) O=C(O)C(CCCCCOc1ccc2cc(-c3nc(OCc4ccccc4)cc(-c4ccccc4)n3)ccc2c1)C(=O)O [compound 47]
Query string: Hi team, can someone confirm which has the larger pIC50: A or B ? Thanks. Choose, then provide that item's label.
Result string: B
